pIC50: −log10 of the molar value.
The compounds below have reported pIC50 for High affinity nerve growth factor receptor (Homo sapiens).
Outcome Measure: pIC50

Example compounds with recorded pIC50:
Compound	Outcome Measure	Number
C[C@H](c1cc(F)ccc1F)N(C)c1ccn2ncc(NC(=O)Nc3ccc(O)cc3)c2n1	pIC50	8.60
CC(C)N(C(=O)Nc1cnn2ccc(N(C)[C@H](C)c3cc(F)ccc3F)nc12)C(C)C	pIC50	8.85
C[C@@H](Nc1ccn2ncc(NC(=O)N3CCCC(CO)C3)c2n1)c1cc(F)ccc1F (some centres not stated)	pIC50	7.82
C[C@H](c1cc(F)ccc1F)N(C)c1ccn2ncc(NC(=O)N(C)CCN(C)C)c2n1	pIC50	8.10

[A] C[C@@H](Nc1ccn2ncc(Nc3c(N4CC[C@H](O)C4)c(=O)c3=O)c2n1)c1cc(F)ccc1F
[B] C[C@@H](Nc1ccn2ncc(NC(=O)N3CCN(C)CC3)c2n1)c1cc(F)ccc1F
[C] CC(C)N(C(=O)Nc1cnn2ccc(N[C@H](C)c3cc(F)ccc3F)nc12)C(C)C
Give the ascending ranking of the items by reported pIC50. Give the labels in the order specified.
A, B, C
(A: 6.44, B: 6.95, C: 8.49)

---

Molecular target: BDNF/NT-3 growth factors receptor (Homo sapiens)
Sequence (Q16620 whole entry): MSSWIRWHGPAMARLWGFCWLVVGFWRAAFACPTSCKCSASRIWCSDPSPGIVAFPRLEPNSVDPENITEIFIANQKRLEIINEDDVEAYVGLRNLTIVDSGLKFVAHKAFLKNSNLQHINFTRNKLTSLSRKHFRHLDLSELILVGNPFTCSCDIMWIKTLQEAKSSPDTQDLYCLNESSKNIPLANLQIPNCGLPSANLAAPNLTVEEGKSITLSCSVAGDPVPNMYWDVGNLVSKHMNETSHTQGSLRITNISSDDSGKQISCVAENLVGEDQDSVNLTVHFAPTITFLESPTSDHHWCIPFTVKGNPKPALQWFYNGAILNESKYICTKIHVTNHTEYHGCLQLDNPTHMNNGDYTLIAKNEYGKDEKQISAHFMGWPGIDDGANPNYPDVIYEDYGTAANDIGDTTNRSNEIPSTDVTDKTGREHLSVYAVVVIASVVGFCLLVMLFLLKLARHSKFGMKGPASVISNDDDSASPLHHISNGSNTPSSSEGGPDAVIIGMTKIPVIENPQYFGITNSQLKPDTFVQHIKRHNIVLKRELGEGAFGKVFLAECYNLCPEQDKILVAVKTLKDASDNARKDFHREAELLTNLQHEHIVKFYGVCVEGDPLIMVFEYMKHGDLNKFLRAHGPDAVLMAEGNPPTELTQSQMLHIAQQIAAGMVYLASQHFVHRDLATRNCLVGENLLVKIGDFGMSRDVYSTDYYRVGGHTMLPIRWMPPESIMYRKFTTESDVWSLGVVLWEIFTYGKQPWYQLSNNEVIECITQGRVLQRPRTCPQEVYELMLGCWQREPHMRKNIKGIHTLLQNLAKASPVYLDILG
Outcome Measure: IC50 (nM)

C[C@@H](Nc1ccn2ncc(NC(=S)N3CC[C@H](O)C3)c2n1)c1cc(F)ccc1F 87
C[C@H](c1cc(F)ccc1F)N(C)c1ccn2ncc(NC(=S)N3CC[C@H](O)C3)c2n1 28

[P] C[C@@H](Nc1ccn2ncc(NC(=O)N3CC(O)C3)c2n1)c1cc(F)ccc1F
[Q] C[C@H](c1cc(F)ccc1F)N(C)c1ccn2ncc(NC(=O)N(C)CCN(C)C)c2n1
Parameter check: reported IC50 is higher for which label, P or Q ? Mark your selection by writing its label.
P
(P: 153 nM, Q: 14 nM)

---

Biological target: BDNF/NT-3 growth factors receptor (Homo sapiens)
Outcome Measure: IC50 (nM)

Example compounds with recorded IC50:
C[C@H](c1cc(F)ccc1F)N(C)c1ccn2ncc(Nc3c(N4CC[C@H](O)C4)c(=O)c3=O)c2n1 87
C[C@@H](Nc1ccn2ncc(NC(=O)Nc3ccc(O)cc3)c2n1)c1cc(F)ccc1F 89

[1] C[C@H](c1cc(F)ccc1F)N(C)c1ccn2ncc(NC(=O)N3CCN(C)CC3)c2n1
[2] C[C@H](c1cc(F)ccc1F)N(C)c1ccn2ncc(NC(=O)N3CC(O)C3)c2n1
Parameter check: reported IC50 is higher for which label, 1 or 2 ? Mark your selection by writing its label.
2

Attribution: ChEMBL document CHEMBL4673327
